Where do these numbers come from? They come from PubChem BioAssay (NCI).

# System: SW-620 colon
# Protocol: NCI tumour cell line growth inhibition, 48 h
# label = satisfied if TGI >= 30 µM else not satisfied

{"columns": ["Compound", "Group"],
 "data": [
  ["O=C1CC(Br)c2c(Br)sc(Br)c21 (stereo not given)", "not satisfied"],
  ["O=C(Nc1ccc(Cl)cc1)c1cc(S(=O)(=O)Nc2n[nH]c(Nc3ccc4ccccc4c3)n2)c(SSc2cc(Cl)c(C(=O)Nc3ccc(Cl)cc3)cc2S(=O)(=O)Nc2n[nH]c(Nc3ccc4ccccc4c3)n2)cc1Cl", "satisfied"],
  ["CCOC(=O)c1cc(/C(=N\\O)c2cc(OC)c(OC)c(OC)c2)n2cc(C)cc(C)c12", "satisfied"],
  ["Cc1cc(C)nc(NS(=O)(=O)c2ccc(Nc3c4ccccc4nc4c(C(=O)Nc5ccc(S(=O)(=O)Nc6cc(C)on6)cc5)cccc34)cc2)n1", "satisfied"],
  ["O=C(Nc1ccc(Cl)cc1)c1cc(-c2ccc(F)cc2)c2sc(=O)[nH]c2n1", "not satisfied"],
  ["O=S(=O)(O)CCSSCCS(=O)(=O)O", "satisfied"],
  ["CCOC(=O)CC[C@H](N)C(=O)N[C@@H](Cc1ccc(N(CCCl)CCCl)cc1)C(=O)OCC", "not satisfied"]
]}
